Target: His-tagged CRBN-DDB1 complex (Homo sapiens)
Sequence (Q96SW2 whole entry): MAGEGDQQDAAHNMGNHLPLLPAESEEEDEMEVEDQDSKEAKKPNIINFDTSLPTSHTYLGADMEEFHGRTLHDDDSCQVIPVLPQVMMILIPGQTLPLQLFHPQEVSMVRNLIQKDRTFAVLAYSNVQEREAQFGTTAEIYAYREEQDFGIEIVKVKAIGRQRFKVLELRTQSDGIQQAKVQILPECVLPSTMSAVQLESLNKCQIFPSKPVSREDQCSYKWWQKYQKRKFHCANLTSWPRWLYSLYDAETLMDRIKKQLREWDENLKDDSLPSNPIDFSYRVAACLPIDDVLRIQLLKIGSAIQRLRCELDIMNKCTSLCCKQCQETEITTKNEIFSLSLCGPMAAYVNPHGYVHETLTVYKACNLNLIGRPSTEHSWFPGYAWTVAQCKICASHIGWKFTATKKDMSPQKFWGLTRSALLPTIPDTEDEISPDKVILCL
Sequence (Q16531 whole entry partner): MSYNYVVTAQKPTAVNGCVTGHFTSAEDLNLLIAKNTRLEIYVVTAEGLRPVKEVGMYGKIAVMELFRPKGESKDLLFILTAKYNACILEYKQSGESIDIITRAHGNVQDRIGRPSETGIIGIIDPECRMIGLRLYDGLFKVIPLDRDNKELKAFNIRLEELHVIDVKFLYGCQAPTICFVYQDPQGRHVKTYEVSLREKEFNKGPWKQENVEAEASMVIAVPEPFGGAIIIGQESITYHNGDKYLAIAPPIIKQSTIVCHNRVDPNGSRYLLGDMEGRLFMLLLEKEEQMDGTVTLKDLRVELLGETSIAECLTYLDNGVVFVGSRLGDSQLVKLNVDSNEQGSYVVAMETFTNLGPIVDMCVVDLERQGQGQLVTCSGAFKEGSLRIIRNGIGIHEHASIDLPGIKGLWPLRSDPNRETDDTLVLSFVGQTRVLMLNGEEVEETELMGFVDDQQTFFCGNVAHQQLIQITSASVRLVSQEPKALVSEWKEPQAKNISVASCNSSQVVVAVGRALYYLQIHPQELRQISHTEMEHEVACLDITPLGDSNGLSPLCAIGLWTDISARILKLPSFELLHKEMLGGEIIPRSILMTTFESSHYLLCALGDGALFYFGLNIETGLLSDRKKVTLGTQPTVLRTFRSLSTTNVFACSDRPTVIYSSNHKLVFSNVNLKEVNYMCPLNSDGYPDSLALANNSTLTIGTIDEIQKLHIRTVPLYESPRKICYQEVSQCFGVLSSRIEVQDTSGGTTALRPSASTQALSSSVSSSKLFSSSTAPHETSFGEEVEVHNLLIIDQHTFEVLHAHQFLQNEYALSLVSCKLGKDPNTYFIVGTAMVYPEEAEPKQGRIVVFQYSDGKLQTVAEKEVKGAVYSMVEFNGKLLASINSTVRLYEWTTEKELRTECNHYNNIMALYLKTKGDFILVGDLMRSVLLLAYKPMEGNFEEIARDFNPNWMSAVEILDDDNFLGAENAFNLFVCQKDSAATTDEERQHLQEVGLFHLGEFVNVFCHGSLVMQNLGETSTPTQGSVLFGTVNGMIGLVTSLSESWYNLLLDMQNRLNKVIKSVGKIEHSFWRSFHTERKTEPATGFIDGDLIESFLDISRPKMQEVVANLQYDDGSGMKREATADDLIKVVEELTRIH
Test: Time-Resolved Fluorescence Resonance Energy Transfer (TR-FRET / HTRF) CRBN binding assay, displacement of Cy5-labeled thalidomide
Details: His-CRBN-DDB1, Cy5-thalidomide 8 nM, 1 hour room temperature
Description: Time-Resolved Fluorescence Resonance Energy Transfer (TR-FRET) Assay. Equal volumes of His-tagged CRBN-DDB1 complex (56 nM) was mixed with Eu-cryptate labeled Anti-6HIS-monoclonal antibody (50× dilution from the commercial stock solution, Vender: Cisbio, Cat. #61HI2KLA) in a final buffer containing 20 mM HEPES pH 7.0, 150 mM NaCl, 0.005% Tween-20. […] The mixture were incubated at room temperature for 1 hour. […] FRET efficiency was calculated as the ratio of fluorescent signals at 665 nM/615 nM. […]
parameter_measured: IC50

Kindly note the recorded IC50 for `O=C1NC(=O)[C@@H]2CN(c3cccc(F)c3)C[C@H]12` , which is > 100 µM

Kindly note the recorded IC50 for `NCCCCCC#Cc1cccc(Oc2cccc3c2C(=O)NC(=O)C3)c1` , which is < 10 µM

Kindly note the recorded IC50 for `O=C1CC2(CCN(c3ccc(Br)cc3)CC2)CC(=O)N1` , which is > 100 µM

Kindly note the recorded IC50 for `Cc1cccc(CN2C[C@@H]3C(=O)NC(=O)[C@@H]3C2)n1` , which is 10 to 30 µM

Kindly note the recorded IC50 for `O=C1CC2(CCN(c3cccc(O)c3)CC2)CC(=O)N1` , which is > 100 µM

Kindly note the recorded IC50 for `CC(=O)Nc1cccc2c1C(=O)NC(=O)C2` , which is 10 to 30 µM

Kindly note the recorded IC50 for `COc1ccc2cc(N3C[C@@H]4C(=O)NC(=O)[C@@H]4C3)ccc2c1` , which is > 100 µM
